Each recorded value in this set is attributed to ChEMBL document CHEMBL1138518.

- System: SK-BR-3
- Test Protocol: Cytotoxicity against human SKBR3 cells after 72 hrs by celltiter-glo assay
- Assay type: functional, cell-based
- Condition Summary: Homo sapiens, SK-BR-3, 72 h
// map IC50 to label using b0: < 30 nM; b1: ≥ 30 nM and < 300 nM; b2: ≥ 300 nM

[ask] Quick check: band for CO[C@H]1[C@@H](OC)C[C@H](C)CC2=C(NCCN3CCC3)C(=O)C=C(NC(=O)/C(C)=C/C=C\[C@H](OC)[C@@H](OC(N)=O)/C(C)=C/[C@@H]1C)C2=O (stereo in doubt)
[reply] b1

---

Recorded Kd, one value per entry.
- Tgt: Heat shock protein HSP 90-beta (Homo sapiens, UniProt P08238)
- Sequence (P08238 whole entry): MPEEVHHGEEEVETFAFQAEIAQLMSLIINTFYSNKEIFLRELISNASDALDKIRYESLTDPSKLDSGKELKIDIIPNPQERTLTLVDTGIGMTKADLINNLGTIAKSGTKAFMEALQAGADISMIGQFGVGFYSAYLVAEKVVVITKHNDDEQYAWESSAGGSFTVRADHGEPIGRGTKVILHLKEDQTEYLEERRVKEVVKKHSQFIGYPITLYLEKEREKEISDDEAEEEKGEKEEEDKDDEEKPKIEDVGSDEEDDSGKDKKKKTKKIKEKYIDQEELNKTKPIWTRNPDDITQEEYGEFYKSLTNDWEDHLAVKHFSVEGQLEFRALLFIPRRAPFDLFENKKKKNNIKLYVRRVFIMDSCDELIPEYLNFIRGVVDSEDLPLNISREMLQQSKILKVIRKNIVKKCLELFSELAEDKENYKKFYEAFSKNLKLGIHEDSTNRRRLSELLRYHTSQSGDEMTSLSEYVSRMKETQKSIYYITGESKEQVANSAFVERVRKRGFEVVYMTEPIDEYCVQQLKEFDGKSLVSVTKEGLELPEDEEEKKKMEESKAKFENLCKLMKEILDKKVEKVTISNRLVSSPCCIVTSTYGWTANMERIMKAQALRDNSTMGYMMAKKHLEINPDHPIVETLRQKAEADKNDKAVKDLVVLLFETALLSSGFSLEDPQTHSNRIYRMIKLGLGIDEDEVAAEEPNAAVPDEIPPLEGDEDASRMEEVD
- Test Protocol: Binding affinity to human recombinant HSP90
Number only, in µM; omit the unit.

Completed entries (count: 3):
1. C=CCNC1=C2C[C@@H](C)C[C@H](OC)C(=O)[C@@H](C)/C=C(\C)[C@H](OC(N)=O)[C@@H](OC)/C=C\C=C(/C)C(=O)NC(=CC1=O)C2=O (stereo in doubt): 3.3
2. CO[C@H]1/C=C\C=C(/C)C(=O)NC2=CC(=O)C(N)=C(C[C@@H](C)C[C@H](OC)[C@H](O)[C@@H](C)/C=C(\C)[C@@H]1OC(N)=O)C2=O (stereo in doubt): 0.1
3. CO[C@H]1/C=C\C=C(/C)C(=O)NC2=CC(=O)C(NCCN3CCC3)=C(C[C@@H](C)C[C@H](OC)[C@H](O)[C@@H](C)/C=C(\C)[C@@H]1OC(N)=O)C2=O (stereo in doubt): 0.4

[ask] Notebook: pull reported Kd for Heat shock protein HSP 90-beta (Homo sapiens, UniProt P08238), entry CO[C@H]1[C@@H](OC)C[C@H](C)CC2=C(N3CCC3)C(=O)C=C(NC(=O)/C(C)=C/C=C\[C@H](OC)[C@@H](OC(N)=O)/C(C)=C/[C@@H]1C)C2=O (stereo in doubt)
[reply] 4

---

- Tgt: UniProt P08238
- Test Protocol: Binding affinity to human recombinant HSP90
pKd: −log10 of the molar value.
Recorded pKd, one value per entry.

1. CO[C@H]1C[C@H](C)CC2=C(NCCN(C)C)C(=O)C=C(NC(=O)/C(C)=C/C=C\[C@H](OC)[C@@H](OC(N)=O)/C(C)=C/[C@H](C)/C1=N\O)C2=O (stereo in doubt): < 5.00

[ask] What does the data say about its pKd? Entry: CO[C@H]1[C@@H](OC)C[C@H](C)CC2=C(NCCF)C(=O)C=C(NC(=O)/C(C)=C/C=C\[C@H](OC)[C@@H](OC(N)=O)/C(C)=C/[C@@H]1C)C2=O (stereo in doubt)
[reply] 5.64

[ask] What does the data say about its pKd? Entry: C=CCO/N=C1/[C@@H](OC)C[C@H](C)CC2=C(NCCN(C)C)C(=O)C=C(NC(=O)/C(C)=C/C=C\[C@H](OC)[C@@H](OC(N)=O)/C(C)=C/[C@@H]1C)C2=O (stereo in doubt)
[reply] < 4.00

---

- Test system: CCRF-CEM
- Test Protocol: Cytotoxicity against human paclitaxel-resistant CCRF-CEM cells after 72 hrs by celltiter-96 aqueous one solution assay
- Format: functional, cell-based
pIC50: −log10 of the molar value.
Response key: fulfilled means pIC50 >= 6; not fulfilled means pIC50 < 6.

Observe how each entry below is paired with its result.
1) C=CCNC1=C2C[C@@H](C)C[C@H](OC)[C@H](OC)[C@@H](C)/C=C(\C)[C@H](OC(N)=O)[C@@H](OC)/C=C\C=C(/C)C(=O)NC(=CC1=O)C2=O (stereo in doubt): not fulfilled
2) CO[C@H]1[C@@H](OC)C[C@H](C)CC2=C(NCCN3CCCC3)C(=O)C=C(NC(=O)/C(C)=C/C=C\[C@H](OC)[C@@H](OC(N)=O)/C(C)=C/[C@@H]1C)C2=O (stereo in doubt): fulfilled
3) CO[C@H]1[C@@H](OC)C[C@H](C)CC2=C(NCCN3CCC3)C(=O)C=C(NC(=O)/C(C)=C/C=C\[C@H](OC)[C@@H](OC(N)=O)/C(C)=C/[C@@H]1C)C2=O (stereo in doubt): fulfilled
4) CO[C@H]1[C@@H](OC)C[C@H](C)CC2=C(NCCc3c[nH]cn3)C(=O)C=C(NC(=O)/C(C)=C/C=C\[C@H](OC)[C@@H](OC(N)=O)/C(C)=C/[C@@H]1C)C2=O (stereo in doubt): not fulfilled

[ask] Please indicate if the recorded pIC50 for `CO[C@H]1[C@@H](OC)C[C@H](C)CC2=C(NCCN(C)C)C(=O)C=C(NC(=O)/C(C)=C/C=C\[C@H](OC)[C@@H](OC(N)=O)/C(C)=C/[C@@H]1C)C2=O` meets or exceeds 6.
[reply] fulfilled

[ask] Please indicate if the recorded pIC50 for CO[C@H]1/C=C\C=C(/C)C(=O)NC2=CC(=O)C(NCCN(C)C)=C(C[C@@H](C)C[C@H](OC)[C@H](O)[C@@H](C)/C=C(\C)[C@@H]1OC(N)=O)C2=O (stereo in doubt) [ALVESPIMYCIN] meets or exceeds 6.
[reply] not fulfilled

[ask] Please indicate if the recorded pIC50 for CO[C@H]1[C@@H](OC)C[C@H](C)CC2=C(NCCF)C(=O)C=C(NC(=O)/C(C)=C/C=C\[C@H](OC)[C@@H](OC(N)=O)/C(C)=C/[C@@H]1C)C2=O (stereo in doubt) meets or exceeds 6.
[reply] not fulfilled

[ask] Please indicate if the recorded pIC50 for CO[C@H]1[C@@H](OC)C[C@H](C)CC2=C(N3CCC3)C(=O)C=C(NC(=O)/C(C)=C/C=C\[C@H](OC)[C@@H](OC(N)=O)/C(C)=C/[C@@H]1C)C2=O (stereo in doubt) meets or exceeds 6.
[reply] not fulfilled
